This collection of values is drawn from paper PMC6152416.

# measurement target: COX-2 (Homo sapiens, UniProt P35354)
# Construct: purchased BioVision (Milpitas, CA, USA) K547-100
# method summary: Fluorimetric COX-2 inhibition screening kit (BioVision)
# Assay type: biochemical
# test settings: 10^−5 M
inhibition at 10 µM listing for selected compounds.
The answer is to be given in %; state only the numeric part.

Illustrative cases are given below, each with its answer.
- structure smiles string: "c1ccc(COc2ccc(-c3nc4ccccc4n3CCN3CCOCC3)cc2)cc1"
  measurement target: "COX-2 (Homo sapiens, UniProt P35354)"
  inhibition at 10 µM / %: 47
- structure smiles string: "FC(F)(F)Oc1ccc(-c2nc3ccccc3n2CCN2CCOCC2)cc1"
  measurement target: "COX-2 (Homo sapiens, UniProt P35354)"
  inhibition at 10 µM / %: 46.1
- structure smiles string: "CCOc1ccc(-c2nc3ccccc3n2CCN2CCOCC2)cc1"
  measurement target: "COX-2 (Homo sapiens, UniProt P35354)"
  inhibition at 10 µM / %: 52.5
- structure smiles string: "Cc1ccc(-c2nc3ccccc3n2CCN2CCOCC2)cc1"
  measurement target: "COX-2 (Homo sapiens, UniProt P35354)"
  inhibition at 10 µM / %: 43.7
- structure smiles string: "CCN(CC)c1ccc(-c2nc3ccccc3n2CCN2CCOCC2)cc1"
  measurement target: "COX-2 (Homo sapiens, UniProt P35354)"
  inhibition at 10 µM / %: 47.5

Provide measured inhibition at 10 µM value, entry: COc1ccc(-c2nc3ccccc3n2CCN2CCOCC2)cc1
57.9

---

# COX-2 Inhibition (%) values compiled below
# measurement target: COX-2 (Homo sapiens)
# Construct: purchased BioVision (Milpitas, CA, USA) K547-100
# method summary: Fluorimetric COX-2 inhibition screening kit (BioVision)
# Format: biochemical
# test settings: 10^-3 M
Please state the figure in %; there is no need to write the unit.

The following compounds have reported results that may help.
- structure smiles string: "Clc1ccc(-c2nc3ccccc3n2CCN2CCOCC2)cc1"
  measurement target: "COX-2 (Homo sapiens)"
  property name: "COX-2 Inhibition (%)"
  unit: "%"
  value observed: 17.85
- structure smiles string: "Fc1ccc(-c2nc3ccccc3n2CCN2CCOCC2)cc1"
  measurement target: "COX-2 (Homo sapiens)"
  property name: "COX-2 Inhibition (%)"
  unit: "%"
  value observed: 21.08

Answer with COX-2 Inhibition (%) of CC(C)c1ccc(-c2nc3ccccc3n2CCN2CCOCC2)cc1 measured for COX-2 (Homo sapiens).
14.26

Under COX-2 (Homo sapiens): report COX-2 Inhibition (%) of CCN(CC)c1ccc(-c2nc3ccccc3n2CCN2CCOCC2)cc1 .
56.20

Specify COX-2 Inhibition (%) for Brc1ccc(-c2nc3ccccc3n2CCN2CCOCC2)cc1 , system COX-2 (Homo sapiens).
16.30

Please look at CN(C)c1ccc(-c2nc3ccccc3n2CCN2CCOCC2)cc1 and tell me its recorded COX-2 Inhibition (%) on COX-2 (Homo sapiens).
18.47

---

# measurement target: COX-1 (Ovis aries, UniProt P05979)
# Construct: purchased BioVision (Milpitas, CA, USA) K548-100
# Sequence (P05979 25-600): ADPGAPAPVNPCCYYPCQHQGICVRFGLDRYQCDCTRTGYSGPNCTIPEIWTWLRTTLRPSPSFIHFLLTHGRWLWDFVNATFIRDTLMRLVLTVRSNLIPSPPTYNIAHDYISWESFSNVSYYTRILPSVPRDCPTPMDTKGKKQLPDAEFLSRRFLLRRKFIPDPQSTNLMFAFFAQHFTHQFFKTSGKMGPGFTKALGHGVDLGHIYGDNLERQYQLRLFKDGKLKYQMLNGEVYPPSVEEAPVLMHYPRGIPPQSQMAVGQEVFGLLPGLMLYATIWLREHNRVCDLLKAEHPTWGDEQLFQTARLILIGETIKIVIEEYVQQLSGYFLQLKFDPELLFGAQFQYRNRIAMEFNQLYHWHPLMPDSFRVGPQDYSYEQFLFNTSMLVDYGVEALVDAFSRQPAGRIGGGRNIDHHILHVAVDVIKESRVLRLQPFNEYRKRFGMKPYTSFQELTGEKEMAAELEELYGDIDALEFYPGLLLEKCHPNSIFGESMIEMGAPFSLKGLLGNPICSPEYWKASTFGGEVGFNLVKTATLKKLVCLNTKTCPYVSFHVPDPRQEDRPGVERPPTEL
# method summary: Fluorimetric COX-1 inhibition screening kit (BioVision)
# Type: biochemical
# test settings: 10^−5 M
// label = 1 if inhibition at 10 µM is not less than 50%, otherwise -1

Here are 4 compounds together with their reported answers.
- structure smiles string: "Cc1ccc(-c2nc3ccccc3n2CCN2CCOCC2)cc1"
  discrete label: -1
- structure smiles string: "c1ccc(COc2ccc(-c3nc4ccccc4n3CCN3CCOCC3)cc2)cc1"
  discrete label: -1
- structure smiles string: "FC(F)(F)Oc1ccc(-c2nc3ccccc3n2CCN2CCOCC2)cc1"
  discrete label: -1
- structure smiles string: "CCN(CC)c1ccc(-c2nc3ccccc3n2CCN2CCOCC2)cc1"
  discrete label: -1

Now, please, on to the next compound.
# bool: inhibition at 10 µM of COc1ccc(-c2nc3ccccc3n2CCN2CCOCC2)cc1 >= 50%
1

---

This section presents compounds with their documented inhibition at 0.1 µM values.
# measurement target: COX-2 (Homo sapiens, UniProt P35354)
# Construct: purchased BioVision (Milpitas, CA, USA) K547-100
# Sequence (P35354 18-604): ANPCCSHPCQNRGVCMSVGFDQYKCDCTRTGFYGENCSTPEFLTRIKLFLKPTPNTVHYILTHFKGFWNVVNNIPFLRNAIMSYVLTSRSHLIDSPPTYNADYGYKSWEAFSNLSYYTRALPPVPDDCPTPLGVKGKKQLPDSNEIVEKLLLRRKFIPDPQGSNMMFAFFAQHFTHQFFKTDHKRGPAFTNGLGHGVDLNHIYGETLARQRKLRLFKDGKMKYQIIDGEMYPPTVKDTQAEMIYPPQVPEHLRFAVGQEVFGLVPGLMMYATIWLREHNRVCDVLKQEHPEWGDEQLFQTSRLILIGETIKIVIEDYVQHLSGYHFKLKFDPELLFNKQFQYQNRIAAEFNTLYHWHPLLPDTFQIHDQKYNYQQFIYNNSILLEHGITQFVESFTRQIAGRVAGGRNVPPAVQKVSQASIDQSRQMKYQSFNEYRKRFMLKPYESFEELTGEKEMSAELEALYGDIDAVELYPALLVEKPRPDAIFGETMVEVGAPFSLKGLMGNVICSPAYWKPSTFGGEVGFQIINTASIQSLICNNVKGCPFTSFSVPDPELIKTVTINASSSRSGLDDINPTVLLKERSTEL
# method summary: Fluorimetric COX-2 inhibition screening kit (BioVision)
# Format: biochemical
# test settings: 10^−7 M
# unit: % | format: bare number

Supply measured inhibition at 0.1 µM of c1ccc(COc2ccc(-c3nc4ccccc4n3CCN3CCOCC3)cc2)cc1 [Compound 2f] in your reply.
35.6

Consider the compound FC(F)(F)Oc1ccc(-c2nc3ccccc3n2CCN2CCOCC2)cc1 [Compound 2m] and give its recorded inhibition at 0.1 µM.
34.5

For the compound CCN(CC)c1ccc(-c2nc3ccccc3n2CCN2CCOCC2)cc1 [Compound 2h] , give its measured inhibition at 0.1 µM value.
31.8

Tell me measured inhibition at 0.1 µM for Cc1ccc(-c2nc3ccccc3n2CCN2CCOCC2)cc1 [Compound 2a] please.
38.3

Using known records, supply inhibition at 0.1 µM for CCOc1ccc(-c2nc3ccccc3n2CCN2CCOCC2)cc1 [Compound 2j]
34

Fill in reported inhibition at 0.1 µM for this entry: COc1ccc(-c2nc3ccccc3n2CCN2CCOCC2)cc1 [Compound 2b]
38.1

---

# measurement target: COX-1 (Ovis aries, UniProt P05979)
# Construct: purchased BioVision (Milpitas, CA, USA) K548-100
# method summary: Fluorimetric COX-1 inhibition screening kit (BioVision)
# Format: biochemical
# test settings: 10^−8 M
property name: inhibition at 0.01 µM (%)
Lab book: enter the figure in %, no units written.

Example compounds with recorded inhibition at 0.01 µM:
- compound: "FC(F)(F)Oc1ccc(-c2nc3ccccc3n2CCN2CCOCC2)cc1 [Compound 2m]"
  inhibition at 0.01 µM / %: 26.2
- compound: "COc1ccc(-c2nc3ccccc3n2CCN2CCOCC2)cc1 [Compound 2b]"
  inhibition at 0.01 µM / %: 26.8
- compound: "CCOc1ccc(-c2nc3ccccc3n2CCN2CCOCC2)cc1 [Compound 2j]"
  inhibition at 0.01 µM / %: 27.5

Recall and state the measured inhibition at 0.01 µM for c1ccc(COc2ccc(-c3nc4ccccc4n3CCN3CCOCC3)cc2)cc1 [Compound 2f] .
32.7

Input Cc1ccc(-c2nc3ccccc3n2CCN2CCOCC2)cc1 [Compound 2a] , output reported inhibition at 0.01 µM.
30.5

Query inhibition at 0.01 µM for CCN(CC)c1ccc(-c2nc3ccccc3n2CCN2CCOCC2)cc1 [Compound 2h]
30.8

---

# measurement target: AChE (Homo sapiens)
# Sequence (P22303 32-614): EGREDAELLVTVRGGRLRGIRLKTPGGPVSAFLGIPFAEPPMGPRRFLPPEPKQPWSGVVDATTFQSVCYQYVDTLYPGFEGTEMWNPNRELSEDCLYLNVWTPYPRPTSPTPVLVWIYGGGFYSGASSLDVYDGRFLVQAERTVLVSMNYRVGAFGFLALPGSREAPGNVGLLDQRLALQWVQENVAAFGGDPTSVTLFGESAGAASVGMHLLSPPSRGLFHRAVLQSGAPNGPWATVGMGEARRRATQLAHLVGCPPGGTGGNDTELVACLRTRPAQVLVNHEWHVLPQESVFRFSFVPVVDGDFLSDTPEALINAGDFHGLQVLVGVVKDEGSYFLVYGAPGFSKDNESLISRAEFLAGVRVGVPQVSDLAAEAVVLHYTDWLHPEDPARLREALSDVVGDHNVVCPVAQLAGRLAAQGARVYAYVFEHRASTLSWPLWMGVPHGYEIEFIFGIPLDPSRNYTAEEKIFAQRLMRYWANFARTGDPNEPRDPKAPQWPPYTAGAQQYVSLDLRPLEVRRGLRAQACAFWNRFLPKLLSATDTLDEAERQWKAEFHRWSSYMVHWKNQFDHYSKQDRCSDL
# Assay type: biochemical
# test settings: 10^-3 M
Measured AChE Inhibition (%), listed per entry.

- structure smiles string: "Brc1ccc(-c2nc3ccccc3n2CCN2CCOCC2)cc1"
  AChE Inhibition (%): "13.04%"
- structure smiles string: "COc1ccc(-c2nc3ccccc3n2CCN2CCOCC2)cc1"
  AChE Inhibition (%): "5.19%"
- structure smiles string: "FC(F)(F)Oc1ccc(-c2nc3ccccc3n2CCN2CCOCC2)cc1"
  AChE Inhibition (%): "32.90%"
- structure smiles string: "Clc1ccc(-c2nc3ccccc3n2CCN2CCOCC2)cc1"
  AChE Inhibition (%): "5.48%"
- structure smiles string: "N#Cc1ccc(-c2nc3ccccc3n2CCN2CCOCC2)cc1"
  AChE Inhibition (%): "20.45%"

Quick one: give measured AChE Inhibition (%) for CSc1ccc(-c2nc3ccccc3n2CCN2CCOCC2)cc1
12.21%
